These measurements were taken from patent US20220008527A1.

target: T1, recombinant human heat shock cognate 71 kDa protein (Hsc70) (human, UniProt P11142 1-646, limits assumed); assay: SEC of peptide-Hsc70 mixture; peptide:Hsc70 molar ratio 0.25:1
T1 construct: also called rhHsc70; human Hsc70
T1 sequence (P11142 whole entry): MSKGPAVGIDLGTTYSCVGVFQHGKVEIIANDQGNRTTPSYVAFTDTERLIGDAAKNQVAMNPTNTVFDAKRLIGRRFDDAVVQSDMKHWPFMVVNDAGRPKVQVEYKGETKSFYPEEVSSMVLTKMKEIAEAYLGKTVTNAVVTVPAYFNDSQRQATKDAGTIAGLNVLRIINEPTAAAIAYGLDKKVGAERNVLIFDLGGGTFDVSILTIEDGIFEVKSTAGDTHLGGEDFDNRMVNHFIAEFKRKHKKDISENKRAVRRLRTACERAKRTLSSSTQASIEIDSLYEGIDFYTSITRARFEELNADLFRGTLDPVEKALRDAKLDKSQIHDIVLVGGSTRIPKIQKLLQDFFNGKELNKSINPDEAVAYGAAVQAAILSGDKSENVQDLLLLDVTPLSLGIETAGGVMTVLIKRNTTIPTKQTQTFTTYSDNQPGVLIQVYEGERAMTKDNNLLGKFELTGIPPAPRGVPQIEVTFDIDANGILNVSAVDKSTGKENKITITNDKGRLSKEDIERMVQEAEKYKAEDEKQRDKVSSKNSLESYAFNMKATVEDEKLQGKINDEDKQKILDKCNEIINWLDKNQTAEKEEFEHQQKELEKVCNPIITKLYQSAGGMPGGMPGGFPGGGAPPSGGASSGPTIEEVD
Value kind: Percent complexation with Hsc70 (%)

In the examples that follow, each entry is paired with its recorded Percent complexation with Hsc70.
>>> reported_value("FFRKNWIRITW (Synthetic peptide) [PEP013]")
25.6
>>> reported_value("FFRKNRLLLTG (Synthetic peptide) [PEP002]")
19.2
>>> reported_value("FFRKNWLRLFW (Synthetic peptide) [PEP010]")
19.1
>>> reported_value("FFRKFWLRLTW (Synthetic peptide) [PEP008]")
24.4
>>> reported_value("FFRKNWLRLKW (Synthetic peptide) [PEP011]")
31.2

A = FFRKNRLWLTG (Synthetic peptide) [PEP005]
B = FFRKNWLRLLW (Synthetic peptide) [PEP009]
Please let me know which one, A or B , has a lower measured Percent complexation with Hsc70 value. Indicate your choice by writing its label.
A
(A: 16%, B: 32.8%)
